- assay target: T1, mouse GPNMB endogenously expressed on B16F10 cells (mouse, UniProt Q99P91 23-574)
- T1 construct: whole, on cells; also called moGPNMB
- T1 sequence (looked up): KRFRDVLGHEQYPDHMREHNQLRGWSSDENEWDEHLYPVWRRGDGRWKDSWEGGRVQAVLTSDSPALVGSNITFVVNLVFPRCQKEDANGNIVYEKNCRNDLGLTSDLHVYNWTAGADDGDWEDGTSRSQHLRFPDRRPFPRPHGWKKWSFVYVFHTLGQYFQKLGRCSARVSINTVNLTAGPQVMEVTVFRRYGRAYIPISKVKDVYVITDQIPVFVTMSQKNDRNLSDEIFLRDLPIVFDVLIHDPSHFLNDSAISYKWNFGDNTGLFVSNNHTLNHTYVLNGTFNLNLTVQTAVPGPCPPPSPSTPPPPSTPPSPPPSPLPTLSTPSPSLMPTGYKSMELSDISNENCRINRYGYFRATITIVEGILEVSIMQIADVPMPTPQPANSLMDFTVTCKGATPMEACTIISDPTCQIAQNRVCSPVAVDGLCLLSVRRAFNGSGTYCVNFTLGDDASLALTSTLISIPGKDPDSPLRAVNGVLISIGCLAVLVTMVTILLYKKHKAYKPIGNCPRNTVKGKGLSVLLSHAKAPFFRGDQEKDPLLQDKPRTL
- assay explanation: FACS titration, B16F10 cells
Documented EC50 across a set of binders
Hi! Could you send only the number? It should be in nM, unit omitted.

Answered examples (2):
anti-GPNMB antibody GPN-83 (antibody, V domains shown) VH: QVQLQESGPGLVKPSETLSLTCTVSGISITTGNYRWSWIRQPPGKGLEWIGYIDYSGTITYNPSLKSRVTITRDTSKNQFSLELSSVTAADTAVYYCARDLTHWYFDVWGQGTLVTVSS VL: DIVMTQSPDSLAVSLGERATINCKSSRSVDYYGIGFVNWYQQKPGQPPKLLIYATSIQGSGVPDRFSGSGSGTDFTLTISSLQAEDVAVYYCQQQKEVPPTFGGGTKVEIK	0.293
anti-GPNMB antibody GPN-87 (antibody, V domains shown) VH: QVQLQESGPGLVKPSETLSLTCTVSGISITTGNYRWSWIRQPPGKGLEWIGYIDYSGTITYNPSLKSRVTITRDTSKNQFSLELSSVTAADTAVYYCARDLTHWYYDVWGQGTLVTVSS VL: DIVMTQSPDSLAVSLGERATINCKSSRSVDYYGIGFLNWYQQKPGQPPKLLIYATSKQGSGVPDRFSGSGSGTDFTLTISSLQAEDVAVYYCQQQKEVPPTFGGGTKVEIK	0.37

Next up:
Query block: Look up EC50 of anti-GPNMB antibody GPN-86 (antibody, V domains shown) VH: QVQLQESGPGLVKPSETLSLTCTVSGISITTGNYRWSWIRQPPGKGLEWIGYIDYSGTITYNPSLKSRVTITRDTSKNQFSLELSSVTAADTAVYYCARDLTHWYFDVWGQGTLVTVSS VL: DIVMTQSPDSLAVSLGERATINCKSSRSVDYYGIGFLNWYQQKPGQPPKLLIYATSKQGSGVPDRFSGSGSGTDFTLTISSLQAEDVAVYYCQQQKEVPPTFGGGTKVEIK and report it.
Result block: 0.178
